B1: Histone H1t, residues 44 to 112; numbered along this chain, P22492 (parent)
chain: VSKLITEALSVSQERVGMSLVALKKALAAAGYDVEKNNSRIKLSLKSLVNKGILVQTRGTGASGSFKLS

Variants of: B1
measurement_protocol: abundance fitness (aPCA) (normalised: wild type 0, dead -1); higher = more abundant; growth selection in yeast, the domain comes from the species named
condition: Homo sapiens
experimental_endpoint: abundance fitness
// return a plain number; no unit text

Input: Name the reported abundance fitness value associated with the variant `G52K`
Output: -0.123

Input: Name the reported abundance fitness value associated with the variant `K25A`
Output: -0.225

Input: Name the reported abundance fitness value associated with the variant `L23D`
Output: -1.22

Input: Name the reported abundance fitness value associated with the variant `S69P`
Output: -0.115

Input: Name the reported abundance fitness value associated with the variant `V49M`
Output: 0.062

Input: Name the reported abundance fitness value associated with the variant `L48E`
Output: -0.784

Input: Name the reported abundance fitness value associated with the variant `S44N`
Output: -0.148

Input: Name the reported abundance fitness value associated with the variant `R58P`
Output: -0.02

Input: Name the reported abundance fitness value associated with the variant `A26L`
Output: -0.138

Input: Name the reported abundance fitness value associated with the variant `N38R`
Output: -0.393

Input: Name the reported abundance fitness value associated with the variant `A28V`
Output: -0.098

Input: Name the reported abundance fitness value associated with the variant `R58C`
Output: -0.121

Input: Name the reported abundance fitness value associated with the variant `K51V`
Output: -0.481

Input: Name the reported abundance fitness value associated with the variant `V21I`
Output: -0.067

Input: Name the reported abundance fitness value associated with the variant `G31F`
Output: -0.285

Input: Name the reported abundance fitness value associated with the variant `N38H`
Output: -0.405

Input: Name the reported abundance fitness value associated with the variant `N50P`
Output: -0.076

Input: Name the reported abundance fitness value associated with the variant `L48D`
Output: -0.405

Input: Name the reported abundance fitness value associated with the variant `L20Q`
Output: -0.5

Input: Name the reported abundance fitness value associated with the variant `L54R`
Output: 0.168

Input: Name the reported abundance fitness value associated with the variant `K46A`
Output: -0.01

Input: Name the reported abundance fitness value associated with the variant `D33N`
Output: -0.254

Input: Name the reported abundance fitness value associated with the variant `V55L`
Output: -0.056

Input: Name the reported abundance fitness value associated with the variant `A22V`
Output: -0.358

Input: Name the reported abundance fitness value associated with the variant `V21W`
Output: -0.16

Input: Name the reported abundance fitness value associated with the variant `L27R`
Output: -1.12

Input: Name the reported abundance fitness value associated with the variant `A22L`
Output: -0.393

Input: Name the reported abundance fitness value associated with the variant `N50C`
Output: -0.311

Input: Name the reported abundance fitness value associated with the variant `E35M`
Output: -0.157

Input: Name the reported abundance fitness value associated with the variant `V49Y`
Output: -0.135

Input: Name the reported abundance fitness value associated with the variant `L68E`
Output: -0.099

Input: Name the reported abundance fitness value associated with the variant `K24H`
Output: -0.694

Input: Name the reported abundance fitness value associated with the variant `S63D`
Output: 0.029

Input: Name the reported abundance fitness value associated with the variant `K42A`
Output: -0.098

Input: Name the reported abundance fitness value associated with the variant `K46R`
Output: -0.053

Input: Name the reported abundance fitness value associated with the variant `K42I`
Output: 0.094

Input: Name the reported abundance fitness value associated with the variant `V55Q`
Output: -0.127

Input: Name the reported abundance fitness value associated with the variant `N50G`
Output: -0.099

Input: Name the reported abundance fitness value associated with the variant `L48I`
Output: -0.564

Input: Name the reported abundance fitness value associated with the variant `T57R`
Output: -0.036

Input: Name the reported abundance fitness value associated with the variant `V34T`
Output: -0.068

Input: Name the reported abundance fitness value associated with the variant `K46I`
Output: -0.129

Input: Name the reported abundance fitness value associated with the variant `S39E`
Output: 0.148

Input: Name the reported abundance fitness value associated with the variant `K24R`
Output: -0.161

Input: Name the reported abundance fitness value associated with the variant `N50Y`
Output: -0.092

Input: Name the reported abundance fitness value associated with the variant `G52W`
Output: -0.457

Input: Name the reported abundance fitness value associated with the variant `S69D`
Output: -0.192

Input: Name the reported abundance fitness value associated with the variant `K51F`
Output: -0.557

Input: Name the reported abundance fitness value associated with the variant `N38M`
Output: 0.084

Input: Name the reported abundance fitness value associated with the variant `Y32R`
Output: -0.055

Input: Name the reported abundance fitness value associated with the variant `G59A`
Output: -0.148

Input: Name the reported abundance fitness value associated with the variant `L27M`
Output: -0.159

Input: Name the reported abundance fitness value associated with the variant `R40T`
Output: -0.085

Input: Name the reported abundance fitness value associated with the variant `A30G`
Output: -0.162

Input: Name the reported abundance fitness value associated with the variant `G61E`
Output: -0.032

Input: Name the reported abundance fitness value associated with the variant `L20T`
Output: -0.351

Input: Name the reported abundance fitness value associated with the variant `V34S`
Output: -0.199

Input: Name the reported abundance fitness value associated with the variant `V49D`
Output: -0.416

Input: Name the reported abundance fitness value associated with the variant `T60Q`
Output: -0.02

Input: Name the reported abundance fitness value associated with the variant `K36R`
Output: -0.106

Input: Name the reported abundance fitness value associated with the variant `V49P`
Output: -0.434

Input: Name the reported abundance fitness value associated with the variant `S63R`
Output: -0.133

Input: Name the reported abundance fitness value associated with the variant `A30Q`
Output: -0.137

Input: Name the reported abundance fitness value associated with the variant `T60A`
Output: 0.074

Input: Name the reported abundance fitness value associated with the variant `V21F`
Output: -0.142

Input: Name the reported abundance fitness value associated with the variant `A22S`
Output: 0.051

Input: Name the reported abundance fitness value associated with the variant `T60H`
Output: -0.076

Input: Name the reported abundance fitness value associated with the variant `L68H`
Output: -0.369

Input: Name the reported abundance fitness value associated with the variant `D33E`
Output: 0.2

Input: Name the reported abundance fitness value associated with the variant `T60N`
Output: -0.036

Input: Name the reported abundance fitness value associated with the variant `V21A`
Output: 0.091

Input: Name the reported abundance fitness value associated with the variant `L68N`
Output: -0.149

Input: Name the reported abundance fitness value associated with the variant `L43K`
Output: 0.181

Input: Name the reported abundance fitness value associated with the variant `A26E`
Output: -0.252

Input: Name the reported abundance fitness value associated with the variant `R40H`
Output: -0.094

Input: Name the reported abundance fitness value associated with the variant `A22H`
Output: -0.158

Input: Name the reported abundance fitness value associated with the variant `F66K`
Output: -0.042

Input: Name the reported abundance fitness value associated with the variant `L43R`
Output: 0.049

Input: Name the reported abundance fitness value associated with the variant `G64K`
Output: 0.031

Input: Name the reported abundance fitness value associated with the variant `T57Q`
Output: -0.013

Input: Name the reported abundance fitness value associated with the variant `N50K`
Output: -0.108

Input: Name the reported abundance fitness value associated with the variant `G59P`
Output: -0.138

Input: Name the reported abundance fitness value associated with the variant `K42R`
Output: -0.125

Input: Name the reported abundance fitness value associated with the variant `L68D`
Output: -0.147

Input: Name the reported abundance fitness value associated with the variant `K46N`
Output: -0.489

Input: Name the reported abundance fitness value associated with the variant `S65T`
Output: 0.062

Input: Name the reported abundance fitness value associated with the variant `F66Y`
Output: -0.046

Input: Name the reported abundance fitness value associated with the variant `L23A`
Output: -0.384

Input: Name the reported abundance fitness value associated with the variant `G31S`
Output: -0.264

Input: Name the reported abundance fitness value associated with the variant `Q56A`
Output: 0.212

Input: Name the reported abundance fitness value associated with the variant `G61D`
Output: 0.082
